Molecular target: PKA (Homo sapiens)
Assay: PKA kinase inhibition, Z'-LYTE FRET assay
Type: biochemical
Conditions: 100 μM ATP
pIC50: −log10 of the molar value.
quantity: pIC50

Worked examples follow.
smilesNotation	testedOn	measurement
COc1cc2ncc3c(N)nc(-c4cncc(OC[C@@H](N)CN5CCc6ccccc6C5)c4)cc3c2cc1OC	PKA (Homo sapiens)	< 5.70
COc1cc2ncc3c(N)nc(-c4cncc(OC[C@@H](N)CN5CCc6ccccc65)c4)cc3c2cc1OC	PKA (Homo sapiens)	6.75
COCCN(C[C@H](N)COc1cncc(-c2cc3c(cnc4cc(OC)c(OC)cc43)c(N)n2)c1)c1ccccc1	PKA (Homo sapiens)	6.94
COc1cc2c(cc1O)ncc1c(N)nc(-n3ccnc3)cc12	PKA (Homo sapiens)	< 5.70
COc1cc2ncc3c(N)nc(-c4cncn4C)cc3c2cc1OC	PKA (Homo sapiens)	< 5.70
COc1cc2c(cc1OCCN1CCOCC1)ncc1c(N)nc(-n3ccnc3)cc12	PKA (Homo sapiens)	< 5.70
COc1cc2ncc3c(N)nc(-c4cncc(OC[C@@H](N)Cc5ccc(F)cc5)c4)cc3c2cc1OCc1ccccc1	PKA (Homo sapiens)	< 5.70
COc1cc2ncc3c(N)nc(-c4cncc(OC[C@@H](N)Cc5ccc(NC(=O)OCc6ccccc6)cc5)c4)cc3c2cc1OC	PKA (Homo sapiens)	< 5.70
COc1cc2ncc3c(N)nc(-c4cncc(O[C@H]5CCNC5)c4)cc3c2cc1OC	PKA (Homo sapiens)	< 5.70
COc1cc2ncc3c(N)nc(-c4cncc(O)c4)cc3c2cc1OC	PKA (Homo sapiens)	< 5.70

Let's switch to this compound now.
Task: PKA (Homo sapiens) / pIC50 / COc1cc2ncc3c(N)nc(-c4cncc(OC[C@@H](N)CNc5cccc(F)c5)c4)cc3c2cc1OC : value?
Result: 6.65
